Reference source: patent US9604945B2

procedure_text: Plasma drug concentration by different routes of administration
Type: in vivo, C57BL/6 mice
condition_details: C57BL/6, mouse, plasma; 10 mg/kg (PO), time 240 mins
Method: The following materials and methods are provided to facilitate the practice of Example 9, in which drug concentration in certain biological samples were assessed using different routes of administration. Parameters Used in Dosing and Drug Administration of the Compound of Example 3: Adult C57BL/6 mice (preferred 16 weeks old). Three mice per time point. If all three routes are conducted in same day, one group of pre-dose is efficient. […]
endpoint: concentration at 240 min (ng/mL)
Just the number in ng/mL, nothing appended.

What value of concentration at 240 min has been reported for the following compound? Cc1ccc(C[n+]2[cH-]/c(=N\C(=O)Nc3ccccc3)on2)cc1 [Example 3]
15.8

---

procedure_text: Plasma drug concentration by different routes of administration
Type: in vivo, C57BL/6 mice
condition_details: C57BL/6, mouse, plasma, intraperitoneal; 10 mg/kg (IP), time 60 mins
endpoint: concentration at 60 min (ng/mL)
Report the figure in ng/mL without appending any unit label.

I have this compound here, `Cc1ccc(C[n+]2[cH-]/c(=N\C(=O)Nc3ccccc3)on2)cc1` , and I need its recorded concentration at 60 min.
115

---

procedure_text: Plasma drug concentration by different routes of administration
Format: in vivo, C57BL/6 mice
condition_details: C57BL/6, mouse, plasma; 10 mg/kg (IV), time 240 mins
endpoint: concentration at 240 min (ng/mL)
Answer in ng/mL, number only, no unit symbol.

Please report the recorded concentration at 240 min for Cc1ccc(C[n+]2[cH-]/c(=N\C(=O)Nc3ccccc3)on2)cc1 [Example 3] .
47.4

---

procedure_text: Brain drug concentration by different routes of administration
Assay type: in vivo, C57BL/6 mice
condition_details: C57BL/6, mouse, brain; 30 mg/kg (PO), time 120 mins
endpoint: concentration at 120 min (ng/mL)
Entry rule: numbers only, all in ng/mL.

Any idea what concentration at 120 min was measured for `Cc1ccc(C[n+]2[cH-]/c(=N\C(=O)Nc3ccccc3)on2)cc1` ?
203

---

study_target: dopamine transporter (DAT) (Cavia porcellus)
Sequence (H0WCX4 1-619): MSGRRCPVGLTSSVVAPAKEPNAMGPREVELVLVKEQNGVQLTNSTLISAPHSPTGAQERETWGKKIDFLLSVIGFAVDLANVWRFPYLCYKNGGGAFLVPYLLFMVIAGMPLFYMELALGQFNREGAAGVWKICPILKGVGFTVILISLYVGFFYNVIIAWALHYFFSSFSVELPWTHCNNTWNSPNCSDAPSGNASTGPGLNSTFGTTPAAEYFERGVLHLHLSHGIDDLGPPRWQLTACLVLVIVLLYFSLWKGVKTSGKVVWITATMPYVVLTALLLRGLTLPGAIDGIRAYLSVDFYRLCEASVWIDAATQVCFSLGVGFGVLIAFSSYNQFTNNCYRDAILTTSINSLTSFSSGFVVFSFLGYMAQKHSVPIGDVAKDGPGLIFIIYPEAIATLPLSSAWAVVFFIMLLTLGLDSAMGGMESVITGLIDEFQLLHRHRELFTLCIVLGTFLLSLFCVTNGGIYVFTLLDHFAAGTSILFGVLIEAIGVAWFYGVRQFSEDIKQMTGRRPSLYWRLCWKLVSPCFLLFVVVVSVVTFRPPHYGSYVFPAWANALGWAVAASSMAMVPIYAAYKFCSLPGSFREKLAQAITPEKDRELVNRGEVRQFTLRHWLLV
procedure_text: Dopamine transporter binding assay [3H]WIN 35,428
Parameters: species or system Guinea Pig
condition_details: read-out: INH at 10 μM DAT
endpoint: inhibition at 10 µM

Field request: inhibition at 10 µM | item: `O=C(/N=c1\[cH-][n+](Cc2ccc(F)cc2)no1)Nc1ccccc1`
99%

Now consider `O=C(/N=c1\[cH-][n+](CCCc2ccccc2)no1)Nc1ccccc1` and answer again.
96%

Now consider `O=C(/N=c1\[cH-][n+](Cc2ccccc2)no1)Nc1ccccc1` and answer again.
90%

Request: `Cc1ccc(C[n+]2[cH-]/c(=N\C(=O)Nc3ccccc3)on2)cc1`
94%

Continue with `O=C(/N=c1\[cH-][n+](CCc2ccccc2)no1)Nc1ccc(Cl)c(Cl)c1`
99%

Try this molecule next: `O=C(/N=c1\[cH-][n+](CCc2ccc([N+](=O)[O-])cc2)no1)Nc1ccc([N+](=O)[O-])c([N+](=O)[O-])c1`
85%

---

procedure_text: Plasma drug concentration by different routes of administration
Type: in vivo, C57BL/6 mice
condition_details: C57BL/6, mouse, plasma; 10 mg/kg (IV), time 60 mins
endpoint: concentration at 60 min (ng/mL)
Hi! Could you send only the number? It should be in ng/mL, unit omitted.

Can you share its concentration at 60 min? I mean this compound: `Cc1ccc(C[n+]2[cH-]/c(=N\C(=O)Nc3ccccc3)on2)cc1`
417

---

procedure_text: Brain drug concentration by different routes of administration
Type: in vivo, C57BL/6 mice
condition_details: C57BL/6, mouse, brain; 10 mg/kg (IV), time 480 mins
endpoint: concentration at 480 min (ng/mL)
Provide the reading as a plain figure in ng/mL.

Fill in the blank: the reported concentration at 480 min of `Cc1ccc(C[n+]2[cH-]/c(=N\C(=O)Nc3ccccc3)on2)cc1` is ____.
49

---

procedure_text: Plasma drug concentration by different routes of administration
Assay type: in vivo, C57BL/6 mice
condition_details: C57BL/6, mouse, plasma; 10 mg/kg (PO), time 30 mins
endpoint: concentration at 30 min
Give your result as the value with the unit written after it.

Can you look up the measured concentration at 30 min of Cc1ccc(C[n+]2[cH-]/c(=N\C(=O)Nc3ccccc3)on2)cc1 [Example 3] for me?
0.0599 µg/mL

---

procedure_text: Plasma drug concentration by different routes of administration
Type: in vivo, C57BL/6 mice
condition_details: C57BL/6, mouse, plasma; 30 mg/kg (PO), time 5 mins
endpoint: concentration at 5 min (ng/mL)
Answer with a number only, understood to be in ng/mL.

Recorded concentration at 5 min of `Cc1ccc(C[n+]2[cH-]/c(=N\C(=O)Nc3ccccc3)on2)cc1` , please.
838

---

procedure_text: Brain drug concentration by different routes of administration
Type: in vivo, C57BL/6 mice
condition_details: C57BL/6, mouse, brain; 10 mg/kg (PO), time 15 mins
endpoint: concentration at 15 min

Return reported concentration at 15 min; argument: `Cc1ccc(C[n+]2[cH-]/c(=N\C(=O)Nc3ccccc3)on2)cc1`
298 ng/mL

---

procedure_text: Plasma drug concentration by different routes of administration
Type: in vivo, C57BL/6 mice
condition_details: C57BL/6, mouse, plasma; 10 mg/kg (PO), time 15 mins
endpoint: concentration at 15 min (ng/mL)
Note: unit ng/mL is implicit; provide only the numeric part.

# concentration at 15 min lookup, item `Cc1ccc(C[n+]2[cH-]/c(=N\C(=O)Nc3ccccc3)on2)cc1`
115

---

procedure_text: Plasma drug concentration by different routes of administration
Type: in vivo, C57BL/6 mice
condition_details: C57BL/6, mouse, plasma; 30 mg/kg (PO), time 15 mins
Experimental: The following materials and methods are provided to facilitate the practice of Example 9, in which drug concentration in certain biological samples were assessed using different routes of administration. Parameters Used in Dosing and Drug Administration of the Compound of Example 3: Adult C57BL/6 mice (preferred 16 weeks old). Three mice per time point. If all three routes are conducted in same day, one group of pre-dose is efficient. […]
endpoint: concentration at 15 min
Express your answer as a number followed by its unit.

Dear colleague, I am looking for the recorded concentration at 15 min of the following molecule: `Cc1ccc(C[n+]2[cH-]/c(=N\C(=O)Nc3ccccc3)on2)cc1`
670 ng/mL

---

procedure_text: Brain drug concentration by different routes of administration
Type: in vivo, C57BL/6 mice
condition_details: C57BL/6, mouse, brain; 30 mg/kg (PO), time 15 mins
endpoint: concentration at 15 min

# concentration at 15 min lookup, item Cc1ccc(C[n+]2[cH-]/c(=N\C(=O)Nc3ccccc3)on2)cc1 [Example 3]
845 ng/mL

---

procedure_text: Plasma drug concentration by different routes of administration
Type: in vivo, C57BL/6 mice
condition_details: C57BL/6, mouse, plasma; 10 mg/kg (IV), time 120 mins
endpoint: concentration at 120 min (ng/mL)
Use ng/mL as the unit, but write only the number.

So what's the measured concentration at 120 min for this one? Cc1ccc(C[n+]2[cH-]/c(=N\C(=O)Nc3ccccc3)on2)cc1 [Example 3]
139

---

procedure_text: Brain drug concentration by different routes of administration
Type: in vivo, C57BL/6 mice
condition_details: C57BL/6, mouse, brain; 10 mg/kg (IV), time 120 mins
endpoint: concentration at 120 min (ng/mL)
Report only the number, with the unit ng/mL understood.

What does the data say about its concentration at 120 min? Entry: `Cc1ccc(C[n+]2[cH-]/c(=N\C(=O)Nc3ccccc3)on2)cc1`
78.7

---

procedure_text: Brain drug concentration by different routes of administration
Type: in vivo, C57BL/6 mice
condition_details: C57BL/6, mouse, brain; 10 mg/kg (IV), time 60 mins
endpoint: concentration at 60 min (ng/mL)
Give the value, in units of ng/mL, as a plain number.

Can you look up the measured concentration at 60 min of Cc1ccc(C[n+]2[cH-]/c(=N\C(=O)Nc3ccccc3)on2)cc1 [Example 3] for me?
464

---

procedure_text: Brain drug concentration by different routes of administration
Format: in vivo, C57BL/6 mice
condition_details: C57BL/6, mouse, brain; 10 mg/kg (IV), time 30 mins
endpoint: concentration at 30 min (ng/mL)
Give the value in ng/mL but do not write ng/mL after it.

For Cc1ccc(C[n+]2[cH-]/c(=N\C(=O)Nc3ccccc3)on2)cc1 [Example 3] , what is its reported concentration at 30 min?
1140

---

procedure_text: Brain drug concentration by different routes of administration
Assay type: in vivo, C57BL/6 mice
condition_details: C57BL/6, mouse, brain; 30 mg/kg (PO), time 60 mins
endpoint: concentration at 60 min (µg/mL)
The reply should be a number in µg/mL, with the unit left off.

Suppose we examine the compound `Cc1ccc(C[n+]2[cH-]/c(=N\C(=O)Nc3ccccc3)on2)cc1` ; what concentration at 60 min value has been reported?
0.218
